Numbers sourced from patent US20260365628A1.

Here, each record is paired with measured pIC50 data.
# STUDY_SYSTEM: hTSHR (Homo sapiens)
# Construct: expressed in transfected cells
# Sequence (P16473 21-764): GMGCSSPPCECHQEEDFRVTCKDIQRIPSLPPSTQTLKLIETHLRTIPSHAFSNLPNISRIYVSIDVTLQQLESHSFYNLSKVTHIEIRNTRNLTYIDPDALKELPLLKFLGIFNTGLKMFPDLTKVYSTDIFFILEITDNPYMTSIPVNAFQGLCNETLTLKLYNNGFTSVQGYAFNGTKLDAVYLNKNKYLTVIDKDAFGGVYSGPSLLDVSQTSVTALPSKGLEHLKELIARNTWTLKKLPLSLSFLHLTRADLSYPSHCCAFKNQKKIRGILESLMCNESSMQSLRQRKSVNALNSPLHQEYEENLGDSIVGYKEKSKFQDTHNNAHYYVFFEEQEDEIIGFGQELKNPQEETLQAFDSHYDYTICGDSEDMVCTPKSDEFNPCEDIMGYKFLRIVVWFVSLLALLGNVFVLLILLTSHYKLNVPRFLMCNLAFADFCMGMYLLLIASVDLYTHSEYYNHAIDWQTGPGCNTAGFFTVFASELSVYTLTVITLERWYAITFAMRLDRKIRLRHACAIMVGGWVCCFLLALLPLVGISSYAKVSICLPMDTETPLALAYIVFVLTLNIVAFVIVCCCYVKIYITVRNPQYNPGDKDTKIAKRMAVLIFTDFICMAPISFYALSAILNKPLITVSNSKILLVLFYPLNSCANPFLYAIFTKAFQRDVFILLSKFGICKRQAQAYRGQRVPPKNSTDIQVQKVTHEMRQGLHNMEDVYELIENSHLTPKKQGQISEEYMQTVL
# TEST: hTSHR TR-FRET cAMP Assay (inhibition of M22-stimulated cAMP production)
# Format: cell-based
# CONDITION_LABEL: Expi293F Inducible cells stably expressing hTSHR; cAMP HTRF; stimulated with EC80 of anti-TSHR antibody M22; 15 min compound preincubation, 30 min at 37° C.; read-out: Activity (IC50 bins)
# Experimental: Assays were performed using Expi293F Inducible cells (Invitrogen) stably expressing hTSHR via a pcZeo TetO DNA plasmid. […] Assay-ready aliquots were prepared by harvesting each cell type separately 24-hours post-induction. Cells were pelleted at 4° C., resuspended in Expi293 Expression media+10% DMSO, aliquoted, and kept frozen at −80° C. until ready for use. […]
pIC50: −log10 of the molar value.

Here's what some known entries look like.
MOLECULE: CC(C)(C)NC(=O)Nc1ccc2c(c1)CCC(=O)N2Cc1cc(C(F)(F)F)ccc1C#N
pIC50: > 7.00
--
MOLECULE: C[C@H]1Oc2cc(NC(=O)NC(C)(C)C)ccc2N([C@@H](C)c2ccccc2)C1=O
pIC50: > 7.00
--
MOLECULE: C[C@H](c1ccccc1)N1C(=O)CCc2cc(NC(=O)NC(C)(C)C)ccc21
pIC50: < 6.00

input: What measured pIC50 goes with C[C@@H](c1ccccc1)n1c(=O)cnc2cc(NC(=O)NC(C)(C)C)c(Cl)cc21 ?
output: 6.00 to 7.00

input: What value of pIC50 has been recorded for this entry: C[C@H]1Oc2cc(NC(=O)NC3CCCC3)ccc2N(Cc2ccccc2)C1=O
output: > 7.00

input: Item under review: C[C@H]1Oc2cc(NC(=O)NC3(C(F)(F)F)CCCC3)ccc2N(Cc2cccc(C(F)(F)F)n2)C1=O . Reported pIC50?
output: > 7.00

input: Fill in the blank: the reported pIC50 of Cc1cccc(CN2C(=O)CCc3cc(NC(=O)NC(C)(C)C)ccc32)c1 is ____.
output: > 7.00

input: Quick check: pIC50 of CC(C)(C)NC(=O)Nc1ccc2c(n1)CCC(=O)N2Cc1cccc(Cl)c1 ?
output: 6.00 to 7.00

input: Quick one: pIC50 of COCC1(NC(=O)Nc2ccc3c(c2)ncc(=O)n3[C@@H](C)c2cccc(OC(F)(F)F)c2)CCC1 ?
output: 6.00 to 7.00

input: For the molecule CC(c1nc(Cl)ccc1Cl)n1c(=O)cnc2cc(NC(=O)NC(C)(C)C)ccc21 (centres unmarked) , what pIC50 is on record?
output: 6.00 to 7.00

input: # query: pIC50 of entry CC(c1cc(F)cc(OC(F)(F)F)c1)n1c(=O)cnc2cc(NC(=O)NC(C)(C)C)ccc21 (centres unmarked)
output: 6.00 to 7.00

input: Requested read-out: pIC50. Entry: C[C@H]1Oc2nc(NC(=O)NC(C)(C)C)c(C(F)(F)F)cc2N(Cc2cccc(C(F)F)c2)C1=O
output: > 7.00

input: What measured pIC50 goes with C[C@@H](c1cccc(OC(F)(F)F)c1)n1c(=O)cnc2cc(NC(=O)NC34CC(C3)C4)ccc21 ?
output: 6.00 to 7.00

input: Requested field: pIC50. Item: C[C@@H](c1cccc(OC(F)(F)F)c1)n1c(=O)cnc2cc(NC(=O)NC3(C)CCC3)ccc21
output: > 7.00

input: // query pIC50 value for entry CC(C)(C)NC(=O)Nc1ccc2c(c1)ncc(=O)n2Cc1cccc(CC(F)(F)F)c1
output: 6.00 to 7.00

input: Field request: pIC50 | item: C[C@@H](c1cccc(OC(F)(F)F)c1)n1c(=O)cnc2cc(NC(=O)NC(C)(C)C)ccc21
output: > 7.00
